- Tested on: glycogen synthase kinase-3 (GSK3A per assay name; protocol says GSK3B)
- methodNotes: compounds binding glycogen synthase kinase-3 – biochemical, small-molecule microarray, 635 nm fluorescence, GSK3A, primary screen (AID 1103); note: the record names both GSK3A and GSK3B
- experimentalParameters: fluorescence 635 nm, higher = more signal
Listing of recorded composite z-score by entry.
parameter: composite z-score

>>> testvalue("COc1cc2c(cc1OC)CN(C(=O)[C@@H]1[C@H]3C(=O)O[C@H](c4ccccc4)[C@H](c4ccccc4)N3[C@H](c3ccc(OCCO)cc3)[C@@]13C(=O)Nc1ccc(C#CCCO)cc13)CC2")
1.27
>>> testvalue("COCC(=C=CC[C@@H](O)c1ccccc1OCCO)C[C@@H](O)COCc1ccccc1")
0.732
>>> testvalue("CCN(CC)c1ccc(N2CC=CC34O[C@@H]5/C=C\\CCCOC(=O)C5[C@H]3C(=O)N(CCCCCO)[C@@H]4C2=O)cc1 (stereo partly specified)")
-1.4
>>> testvalue("Cc1ccc(C(C)CC(O)C2C=CC3C(=O)N(Cc4ccccc4)C(=O)C3N2n2cnnc2)o1 (stereo unspecified)")
0.866
>>> testvalue("CCC[C@@H]1C[C@@]1(CCC)[C@@H](NC(=O)c1cccs1)c1ccc(Cl)cc1")
-0.919
>>> testvalue("COc1ccc([Si](C)(C)[C@@H]2[C@@H](CCO)O[C@]3(C(=O)N(Cc4ccc(N5C(=O)c6ccccc6Oc6ccccc65)cc4)c4ccccc43)[C@H]2C)cc1")
-1.07
>>> testvalue("CCCCC(=C=CC[C@H](O)c1ccccc1OCCO)C[C@H](O)c1ccccn1")
-0.251
>>> testvalue("C/C=C/[C@@H](CCn1cc([C@H](O)c2ccccc2)nn1)[Si](C)(C)c1ccc(OC)cc1")
-0.507
>>> testvalue("O=C1C2C=CC(C(O)c3cccc4ccccc34)N(Nc3ccccc3)C2C(=O)N1c1ccccc1 (stereo unspecified)")
1.28
>>> testvalue("C=C(CCCC)/C(=C/C[C@@H](OC(=O)c1ccncc1)c1ccccc1OCCO)c1cc(C(=O)OC)ccc1OC")
0.272
>>> testvalue("C=C[C@H](C)[C@H](OC(=O)Nc1ccc(SC)cc1)c1ccc(O)c2ccccc12")
-0.266
>>> testvalue("N#Cc1ccc(NN2C(C(O)c3ccco3)C=CC3C(=O)N(c4ccccc4)C(=O)C32)cc1 (stereo unspecified)")
-0.202
>>> testvalue("O=C1NC(=O)C2C1C=CC(C(O)CCc1ccccc1)N2Nc1ccccn1 (stereo unspecified)")
0.44
>>> testvalue("Cc1ccc(N2C(=O)c3ccccc3[C@](C)(C(=O)NC(C)C)[C@@H]2c2ccc(CO)cc2)nc1")
-0.738
>>> testvalue("COC(=O)[C@@]1(Cc2ccc(OC)cc2)[C@H]2c3cc(C(=O)N4CCCC4)n(CCF)c3C[C@H]2CN1C(=O)c1ccccc1")
0.383
>>> testvalue("CC(C)CCC[C@@H](C)[C@H]1CC[C@@]2(C)C3=C(CC[C@]12C)[C@@]1(C)CC[C@H](OC(=O)c2ccc(N)cc2)C(C)(C)C1CC3 (stereo partly specified)")
0.833
